Assay explanation: acute intravenous toxicity
Experimental parameters: mouse, in vivo, male CF-1 mice weighing 20 grams each
Measurement kind: LD50 (mg/kg)

1. CN[C@@H]1[C@@H](O)[C@@H](O[C@@H]2[C@@H](O)[C@H](O[C@H]3O[C@H]([C@H](C)N)CC[C@H]3N)[C@@H](N)C[C@H]2N)OC[C@]1(C)O | 110

Source: patent US4000262A
